Below is a list of entries, each paired with its recorded optical density value.
molecular target: human Fc (human); experiment: ELISA, negative control
Value expressed in OD; do not type the unit.

// below: answered binders
372_D03 (antibody, V domains shown) VH: EVQLLESGGGLVQPGGSLRLSCAASGFTFSSYSMNWVRQAPGKGLEWVAGINYNSGYKSYADSVKGRFTISRDNSKNTLYLQMNSLRAEDTAVYYCARGANWHDTALDYWGQGTLVTVSS VL: DIQMTQSPSSLSASVGDRVTITCRASQSILSYVNWYQQKPGKAPKLVIYAVTSRHSGVPSRFSGSGSGTDFTLTISSLQPEDFATYYCQQSYDSPLTFGGGTKVEIK ... 0.319
371_G04 (antibody, V domains shown) VH: EVQLLESGGGLVQPGGSLRLSCAASGFTFDSYSMNWVRQAPGKGLEWVSGINYNGGYKSYADSVKGRFTISRDNSKNTLYLQMNSLRAEDTAVYYCARGANWHDTALDYWGQGTLVTVSS VL: DIQMTQSPSSLSASVGDRVTITCRASQSILSYLNWYQQKPGKAPKLLIYAATSLHSGVPSRFSGSGSGTDFTLTISSLQPEDFATYYCQQSYESPLTFGGGTKVEIK ... 0.325
365_G07 (antibody, V domains shown) VH: EVQLLESGGGLVQPGGSLRLSCAASGFTFDSYGMHWVRQAPGKGLEWVSSINYNGGYTSYADSVKGRFTISRDNSKNTLYLQMNSLRAEDTAVYYCARAANWHDTALDYWGQGTLVTVSS VL: DIQMTQSPSSLSASVGDRVTITCRASQSIVSYLNWYQQKPGKAPKLLIYAATSRASGVPSRFSGSGSGTDFTLTISSLQPEDFATYYCQQSYDNPLTFGGGTKVEIK ... 0.331

Input: Entry 367_A12 (antibody, V domains shown) VH: EVQLLESGGGLVQPGGSLRLSCAASGFTFSSYGMNWVRQAPGKGLEWVSGINYNSGYTSYADSVKGRFTISRDNSKNTLYLQMNSLRAEDTAVYYCARGANWHDTHLDYWGQGTLVTVSS VL: DIQMTQSPSSLSASVGDRVTITCRASQSILSYLNWYQQKPGKAPKLLIYAATSLHSGVPSRFSGSGSGTDFTLTISSLQPEDFATYYCQQSYNNPLTFGGGTKVEIK has what optical density?
Output: 0.39

Input: Query: optical density; subject: 375_F12 (antibody, V domains shown) VH: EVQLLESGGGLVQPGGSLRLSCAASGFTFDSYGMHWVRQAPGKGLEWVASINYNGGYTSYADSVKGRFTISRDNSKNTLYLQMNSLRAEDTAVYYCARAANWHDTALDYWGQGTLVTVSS VL: DIQMTQSPSSLSASVGDRVTITCRASQSILTYLNWYQQKPGKAPKLVIYAATSRASGVPSRFSGSGSGTDFTLTISSLQPEDFATYYCQQSDELPLTFGGGTKVEIK
Output: 0.175
